Measured MHET released by item
Assay: MHET released, HPLC; higher = more MHET released; extreme values may be limits of the assay
Conditions: PET substrate: cryPow; 70 °C; pH 8.5; 24 h
Respond numerically; units are mM and should not be typed.

Examples with answers:
| sequenceCode | MHET released, mM |
| --- | --- |
| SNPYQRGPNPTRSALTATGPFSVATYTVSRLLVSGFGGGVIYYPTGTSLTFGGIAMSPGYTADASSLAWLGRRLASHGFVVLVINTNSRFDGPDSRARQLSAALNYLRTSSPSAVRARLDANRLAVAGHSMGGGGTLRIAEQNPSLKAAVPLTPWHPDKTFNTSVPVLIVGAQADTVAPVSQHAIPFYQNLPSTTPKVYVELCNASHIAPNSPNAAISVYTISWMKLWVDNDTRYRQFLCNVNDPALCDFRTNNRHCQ [LCC-ICCG I6M] | 0.13 |
| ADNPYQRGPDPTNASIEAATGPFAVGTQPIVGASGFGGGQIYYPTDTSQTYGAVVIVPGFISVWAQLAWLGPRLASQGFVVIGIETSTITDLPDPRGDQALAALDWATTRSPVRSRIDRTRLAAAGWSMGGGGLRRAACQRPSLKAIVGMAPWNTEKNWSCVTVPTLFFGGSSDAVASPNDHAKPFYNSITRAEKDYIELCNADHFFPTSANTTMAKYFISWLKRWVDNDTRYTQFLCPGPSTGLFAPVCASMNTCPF [CaPETaseM9] | 0.0381 |

Let's switch to this sequence now.
Req: Which MHET released is listed for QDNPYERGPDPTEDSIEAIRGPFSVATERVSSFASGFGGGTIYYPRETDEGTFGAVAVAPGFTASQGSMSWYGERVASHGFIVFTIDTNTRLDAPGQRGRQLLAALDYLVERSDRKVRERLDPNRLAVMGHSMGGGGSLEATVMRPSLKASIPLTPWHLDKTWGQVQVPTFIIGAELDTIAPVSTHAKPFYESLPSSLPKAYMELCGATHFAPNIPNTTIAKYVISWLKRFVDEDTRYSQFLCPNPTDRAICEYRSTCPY [Cut190*SS] ?
Resp: 0.024
